Tested on: ACHN renal
Assay: NCI tumour cell line growth inhibition, 48 h
Reported GI50 values are given for each entry in this list.
PROPERTY_NAME: GI50

• Cn1c(=O)c(Cc2ccc(F)cc2F)cc2cnc(NC3CCOCC3)nc21 = > 25000 nM
• COc1ccc(C(=O)Nc2cccc(C3CC(=O)c4c(cc(OC)c(OC)c4OC)O3)c2)cc1 (centres undefined) = 2570 nM
• COc1cc2c(/C=C3\C(=O)Nc4ccc(Br)cc43)c(Cl)n(C)c2cc1C = 2260 nM
• O=C1c2cccnc2-c2nc(-c3ccc([N+](=O)[O-])cc3)cc3c2c1nc1ccccc13 = 5030 nM
